Value source: PubChem BioAssay AID2060620

- System: 328373-195-R-J1-PDC complex spheroids, viability % test/control
- EXPERIMENTAL PROTOCOL: Anticancer human tumor 328373-195-R-J1-PDC patient-derived head and neck squamous carcinoma cell line growth inhibition [CLK]
- TEST CONTEXT: curve of first compound; second compound 3.16 µM
pIC50: −log10 of the molar value.
PROPERTY NAME: pIC50

Below, each entry is followed by its recorded pIC50 result.
CC(=O)O[C@H]1C(=O)[C@@]2(C)[C@H]([C@H](OC(=O)c3ccccc3)[C@]3(O)C[C@H](OC(=O)[C@H](O)[C@@H](NC(=O)c4ccccc4)c4ccccc4)C(C)=C1C3(C)C)[C@]1(OC(C)=O)CO[C@@H]1C[C@@H]2O + CN1CCN(c2cc(C(=O)Nc3cc4cc(-c5cnn(C)c5)ccc4cn3)ccn2)CC1
> 7.50
COC1C=CCC(C)C(C)S(=O)(=O)NC(=O)c2ccc3c(c2)N(CC2CCC21)CC1(CCCc2cc(Cl)ccc21)CO3 (centres undefined) + CN1CCN(c2cc(C(=O)Nc3cc4cc(-c5cnn(C)c5)ccc4cn3)ccn2)CC1
> 7.50
CC1(C)CCC(CN2CCN(c3ccc(C(=O)NS(=O)(=O)c4ccc(NCC5CCOCC5)c([N+](=O)[O-])c4)c(Oc4cnc5[nH]ccc5c4)c3)CC2)=C(c2ccc(Cl)cc2)C1 + CN1CCN(c2cc(C(=O)Nc3cc4cc(-c5cnn(C)c5)ccc4cn3)ccn2)CC1
> 7.50
O=C(c1cc(Cc2n[nH]c(=O)c3ccccc23)ccc1F)N1CCN(C(=O)C2CC2)CC1 + CN1CCN(c2cc(C(=O)Nc3cc4cc(-c5cnn(C)c5)ccc4cn3)ccn2)CC1
> 7.50
C=C(F)C(=O)N1CCN(c2nc(OCC3CCCN3C)nc3c2CCN(c2cccc4cccc(Cl)c24)C3)CC1CC#N (centres undefined) + CN1CCN(c2cc(C(=O)Nc3cc4cc(-c5cnn(C)c5)ccc4cn3)ccn2)CC1
> 7.50

Consider the additional molecule presented here.
Prompt: Which pIC50 reading was recorded for the molecule CC1COCCN1c1cc(C2(S(C)(=N)=O)CC2)nc(-c2ccnc3[nH]ccc23)n1 (centres undefined) + CN1CCN(c2cc(C(=O)Nc3cc4cc(-c5cnn(C)c5)ccc4cn3)ccn2)CC1 ?
Completion: > 7.50

====

This listing pairs compounds with measured viability, T/C.
- Test system: 328373-195-R-J1-PDC complex spheroids, viability % test/control
- EXPERIMENTAL PROTOCOL: Anticancer human tumor 328373-195-R-J1-PDC cell line growth inhibition [CLK];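 also: spheroids exposed to the agents for 7 days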
- TEST CONTEXT: second compound 10 µM; first compound 0.000949 µM; stronger effect = lower value
Write it as a number; the unit % goes unstated.

Prompt: Which viability, T/C reading was recorded for the compound C=CC(=O)Nc1cc(Nc2nccc(-c3cn(C)c4ccccc34)n2)c(OC)cc1N(C)CCN(C)C + CNC(=O)c1ccc(Nc2nc(OC3CCCC3)c3c(-c4ccc5nc(C)oc5c4)c[nH]c3n2)c(OC)c1 ?
Completion: 12

Prompt: Which viability, T/C reading was recorded for the compound C=CC(=O)Nc1cc(Nc2nccc(-c3cn(C)c4ccccc34)n2)c(OC)cc1N(C)CCN(C)C + CN1CCN(c2cc(C(=O)Nc3cc4cc(-c5cnn(C)c5)ccc4cn3)ccn2)CC1 ?
Completion: 0.17

Prompt: Which viability, T/C reading was recorded for the compound CC(C)CC(NC(=O)C(Cc1ccccc1)NC(=O)c1cnccn1)B(O)O (centres undefined) + CNC(=O)c1ccc(Nc2nc(OC3CCCC3)c3c(-c4ccc5nc(C)oc5c4)c[nH]c3n2)c(OC)c1 ?
Completion: 14.2

Prompt: Which viability, T/C reading was recorded for the compound CC(C)CC(NC(=O)C(Cc1ccccc1)NC(=O)c1cnccn1)B(O)O (centres undefined) + CN1CCN(c2cc(C(=O)Nc3cc4cc(-c5cnn(C)c5)ccc4cn3)ccn2)CC1 ?
Completion: 2.18

====

- Tested on: 328373-195-R-J1-PDC complex spheroids, viability % test/control
- EXPERIMENTAL PROTOCOL: Anticancer human tumor 328373-195-R-J1-PDC cell line growth inhibition [CLK]; active = viability on the fitted dose curve at most 10% of control; inactive = the rest;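 also: spheroids exposed to the agents for 7 days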
- TEST CONTEXT: second compound 0.1 µM; first compound 0.03 µM
Outcome (select one): active, inactive

C=CC(=O)Nc1cc(Nc2nccc(-c3cn(C)c4ccccc34)n2)c(OC)cc1N(C)CCN(C)C + CN1CCN(c2cc(C(=O)Nc3cc4cc(-c5cnn(C)c5)ccc4cn3)ccn2)CC1
inactive
C=CC(=O)Nc1cc(Nc2nccc(-c3cn(C)c4ccccc34)n2)c(OC)cc1N(C)CCN(C)C + CNC(=O)c1ccc(Nc2nc(OC3CCCC3)c3c(-c4ccc5nc(C)oc5c4)c[nH]c3n2)c(OC)c1
active
CC(C)CC(NC(=O)C(Cc1ccccc1)NC(=O)c1cnccn1)B(O)O (stereo unspecified) + CN1CCN(c2cc(C(=O)Nc3cc4cc(-c5cnn(C)c5)ccc4cn3)ccn2)CC1
active

Prompt: GET /call?item= NC(=O)C(=Cn1cnc(-c2cc(C(F)(F)F)cc(C(F)(F)F)c2)n1)c1cncnc1 + CN1CCN(c2cc(C(=O)Nc3cc4cc(-c5cnn(C)c5)ccc4cn3)ccn2)CC1 returns the recorded outcome of this test.
Completion: inactive

Prompt: GET /call?item= NC(=O)C(=Cn1cnc(-c2cc(C(F)(F)F)cc(C(F)(F)F)c2)n1)c1cncnc1 + CNC(=O)c1ccc(Nc2nc(OC3CCCC3)c3c(-c4ccc5nc(C)oc5c4)c[nH]c3n2)c(OC)c1 returns the recorded outcome of this test.
Completion: active

Prompt: GET /call?item= CC(C)CC(NC(=O)C(Cc1ccccc1)NC(=O)c1cnccn1)B(O)O (stereo unspecified) + CNC(=O)c1ccc(Nc2nc(OC3CCCC3)c3c(-c4ccc5nc(C)oc5c4)c[nH]c3n2)c(OC)c1 returns the recorded outcome of this test.
Completion: active

====

- System: 328373-195-R-J1-PDC complex spheroids, viability % test/control
- EXPERIMENTAL PROTOCOL: Anticancer human tumor 328373-195-R-J1-PDC cell line growth inhibition [CLK];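 also: spheroids exposed to the agents for 7 days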
- TEST CONTEXT: second compound 0.1 µM; first compound 3.16 µM; stronger effect = lower value
- Source text: A high-throughput screen of multi-cell type tumor spheroids was designed to identify active combinations of […] and targeted small molecules. Complex spheroids include a stromal component modeled by human endothelial cells (HUVEC) and fibroblasts modeled by human mesenchymal stem cells (MSCs). […] Compounds. […] If the clinical Cmax for an agent had not been determined, the highest concentration tested was 10 microM. […]
PROPERTY NAME: viability, T/C (%)
Write it as a number; the unit % goes unstated.

CC(CO)NC(=O)c1cc(-c2ccc(Cl)cc2)nn(-c2cnn(C)c2)c1=O (configuration not stated) + CNC(=O)c1ccc(Nc2nc(OC3CCCC3)c3c(-c4ccc5nc(C)oc5c4)c[nH]c3n2)c(OC)c1
16.1

Consider the additional compound presented here.
Prompt: Which viability, T/C reading was recorded for the compound CC(=O)O[C@H]1C(=O)[C@@]2(C)[C@H]([C@H](OC(=O)c3ccccc3)[C@]3(O)C[C@H](OC(=O)[C@H](O)[C@@H](NC(=O)c4ccccc4)c4ccccc4)C(C)=C1C3(C)C)[C@]1(OC(C)=O)CO[C@@H]1C[C@@H]2O + CNC(=O)c1ccc(Nc2nc(OC3CCCC3)c3c(-c4ccc5nc(C)oc5c4)c[nH]c3n2)c(OC)c1 ?
Completion: 25.2

====

- System: 328373-195-R-J1-PDC complex spheroids, viability % test/control
- EXPERIMENTAL PROTOCOL: Anticancer human tumor 328373-195-R-J1-PDC cell line growth inhibition [CLK];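 also: spheroids exposed to the agents for 7 days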
- TEST CONTEXT: second compound 0.1 µM; first compound 0.0316 µM; stronger effect = lower value
- Excerpt: A high-throughput screen of multi-cell type tumor spheroids was designed to identify active combinations of […] and targeted small molecules. Complex spheroids include a stromal component modeled by human endothelial cells (HUVEC) and fibroblasts modeled by human mesenchymal stem cells (MSCs). […] Compounds. […] If the clinical Cmax for an agent had not been determined, the highest concentration tested was 10 microM. […]
PROPERTY NAME: viability, T/C (%)
Write it as a number; the unit % goes unstated.

Below, each entry is followed by its recorded viability, T/C result.
CC(=O)O[C@H]1C(=O)[C@@]2(C)[C@H]([C@H](OC(=O)c3ccccc3)[C@]3(O)C[C@H](OC(=O)[C@H](O)[C@@H](NC(=O)c4ccccc4)c4ccccc4)C(C)=C1C3(C)C)[C@]1(OC(C)=O)CO[C@@H]1C[C@@H]2O + CN1CCN(c2cc(C(=O)Nc3cc4cc(-c5cnn(C)c5)ccc4cn3)ccn2)CC1
2.72
CCN1CCN(Cc2ccc(Nc3ncc(F)c(-c4cc(F)c5nc(C)n(C(C)C)c5c4)n3)nc2)CC1 + CNC(=O)c1ccc(Nc2nc(OC3CCCC3)c3c(-c4ccc5nc(C)oc5c4)c[nH]c3n2)c(OC)c1
13.1
CC1(C)CCC(CN2CCN(c3ccc(C(=O)NS(=O)(=O)c4ccc(NCC5CCOCC5)c([N+](=O)[O-])c4)c(Oc4cnc5[nH]ccc5c4)c3)CC2)=C(c2ccc(Cl)cc2)C1 + CN1CCN(c2cc(C(=O)Nc3cc4cc(-c5cnn(C)c5)ccc4cn3)ccn2)CC1
88.8
O=c1[nH]cc(F)c(=O)[nH]1 + CNC(=O)c1ccc(Nc2nc(OC3CCCC3)c3c(-c4ccc5nc(C)oc5c4)c[nH]c3n2)c(OC)c1
8.64
CC(=O)O[C@H]1C(=O)[C@@]2(C)[C@H]([C@H](OC(=O)c3ccccc3)[C@]3(O)C[C@H](OC(=O)[C@H](O)[C@@H](NC(=O)c4ccccc4)c4ccccc4)C(C)=C1C3(C)C)[C@]1(OC(C)=O)CO[C@@H]1C[C@@H]2O + CNC(=O)c1ccc(Nc2nc(OC3CCCC3)c3c(-c4ccc5nc(C)oc5c4)c[nH]c3n2)c(OC)c1
20.2

Prompt: Which viability, T/C reading was recorded for the compound CCc1c2c(nc3ccc(O)cc13)-c1cc3c(c(=O)n1C2)COC(=O)[C@]3(O)CC + CNC(=O)c1ccc(Nc2nc(OC3CCCC3)c3c(-c4ccc5nc(C)oc5c4)c[nH]c3n2)c(OC)c1 ?
Completion: 2.54

Prompt: Which viability, T/C reading was recorded for the compound CCN1CCN(Cc2ccc(Nc3ncc(F)c(-c4cc(F)c5nc(C)n(C(C)C)c5c4)n3)nc2)CC1 + CN1CCN(c2cc(C(=O)Nc3cc4cc(-c5cnn(C)c5)ccc4cn3)ccn2)CC1 ?
Completion: 88.5

Prompt: Which viability, T/C reading was recorded for the compound Nc1ccccc1NC(=O)c1ccc(CNC(=O)OCc2cccnc2)cc1 + CNC(=O)c1ccc(Nc2nc(OC3CCCC3)c3c(-c4ccc5nc(C)oc5c4)c[nH]c3n2)c(OC)c1 ?
Completion: 12.5

Prompt: Which viability, T/C reading was recorded for the compound O=C(c1cc(Cc2n[nH]c(=O)c3ccccc23)ccc1F)N1CCN(C(=O)C2CC2)CC1 + CN1CCN(c2cc(C(=O)Nc3cc4cc(-c5cnn(C)c5)ccc4cn3)ccn2)CC1 ?
Completion: 76.8

Prompt: Which viability, T/C reading was recorded for the compound COc1ccc([C@@H](O)c2cc(-c3ncnc4cc(N5CCOCC5)ccc34)c(F)cc2Cl)nn1 + CN1CCN(c2cc(C(=O)Nc3cc4cc(-c5cnn(C)c5)ccc4cn3)ccn2)CC1 ?
Completion: 73.2
